Known GI50 of a selection of compounds
Tested on: PC-3
PROTOCOL DETAILS: NCI tumour cell line growth inhibition, 48 h
Active and inactive are the calls of the source. Rule as the data show it: active = GI50 up to about 1.1 µM and inactive = higher.
ATTRIBUTE MEASURED: GI50

| COMPOUND | SUBJECT OF TEST | RESULT VALUE |
| --- | --- | --- |
| CC1CC(N)=Nc2ccccc2N1Cc1ccccc1 (centres undefined) | PC-3 | 14.2 µM (inactive) |
| Cc1cn(C2CC(OC(=O)c3ccc(Cl)cc3)C(COC(=O)c3ccc(Cl)cc3)O2)c(=O)[nH]c1=O (centres undefined) | PC-3 | > 100 µM (inactive) |
| CCOC(=O)C#Cc1ccc(C#CC(=O)OCC)cc1 | PC-3 | 6.85 µM (inactive) |
| C=CCN1C(=O)/C(=C/c2ccccc2)NC1=S | PC-3 | > 100 µM (inactive) |

====

System: HOP-18
PROTOCOL DETAILS: NCI tumour cell line growth inhibition, 48 h
Active and inactive are the calls of the source. Cut-off read from the data, not from the text of the source: active = GI50 up to about 1.1 µM and inactive = higher.

| COMPOUND | GI50 |
| --- | --- |
| CCOC(=O)C1CCn2c(nc3c2c(=O)n(C)c(=O)n3C)S1 (stereo not given) | > 100 µM (inactive) |
| Oc1ccc2c(c1)OCC1(O)Cc3cc(O)c(O)cc3C21 (stereo not given) | 18.3 µM (inactive) |
| O=C(C(=O)n1ncc(Cl)c(Cl)c1=O)n1ncc(Cl)c(Cl)c1=O | 31.8 µM (inactive) |
| COc1ccc2[nH]cc(CCNC(=O)[C@](O)(Cc3cn(C)c4ccccc34)[C@@]3(O)OCC(O)C3O)c2c1 (stereo not given in full) | > 100 µM (inactive) |
| COc1ccccc1/C=C1\CCC(CCN(C)C)(C2=CCCC2)C1=O (stereo not given) | 26.5 µM (inactive) |
| O=C(OCCOC(=O)c1ccc2c(c1)C1(SCCS1)c1ccccc1-2)c1ccc2c(c1)C1(SCCS1)c1ccccc1-2 | 27.5 µM (inactive) |
| CCOC(=O)C(C(O)c1ccc([N+](=O)[O-])cc1)P(=O)(OCC)OCC (stereo not given) | > 100 µM (inactive) |
| C=CCC12CCC(=O)[C@@]1(C)CC=C(O)C2=O (stereo not given in full) | > 100 µM (inactive) |
| NC(=O)/N=C1/CCC2C3CCCC2C13 | > 100 µM (inactive) |
| COC(=O)c1ccc(C=C(C#N)C#N)cc1 | 36.1 µM (inactive) |
| Cc1cc(C)c([O-])c(-[n+]2c(-c3ccccc3)cc(-c3ccccc3)cc2-c2ccccc2)c1 | 5.31 µM (inactive) |
| COc1ccc(/C=C(\C(C)=O)C(=O)Nc2ccccc2)cc1 | > 100 µM (inactive) |
| OC1CCOc2ccccc21 (stereo not given) | 56.2 µM (inactive) |
| CCOC(=O)C12CCCC1(O)N(NC(N)=O)C(C)=C2C(=O)OC (stereo not given) | > 100 µM (inactive) |
| CCCCCCCCC/C=C1\CCC(CN2CCOCC2)C1=O (stereo not given) | 1.54 µM (inactive) |
| CN(C)c1ccc(C2CC(=O)C(C#N)=C(c3ccccc3)NN2C)cc1 (stereo not given) | 96.6 µM (inactive) |
| CC/C=C\C/C=C\C/C=C\CCCCCCCC(=O)OC [METHYL LINOLENATE] | > 100 µM (inactive) |
| Cc1cc([N+](=O)[O-])c(C)c2c1[nH]c1ccc(O)cc12 | 55.1 µM (inactive) |
| O=C1[C@@H]2C(c3ccccc3Br)=NO[C@@H]2C(=O)N1c1ccc(Cc2ccc(N3C(=O)[C@H]4C(c5ccccc5Br)=NO[C@H]4C3=O)cc2)cc1 | 45.6 µM (inactive) |
| Cc1cc(=O)oc2c1cc1ccc3cccc4ccc2c1c34 | > 100 µM (inactive) |
